- Experimental Setup: fish
Reported Property: log10 BCF

Return reported log10 BCF. Input molecule: `COc1c(Cl)c(Cl)c(Cl)c(Cl)c1Cl`
4.16

Return reported log10 BCF. Input molecule: `CCc1ccc(-c2ccccc2)cc1`
2.82

Return reported log10 BCF. Input molecule: `C=C(C)c1ccc(Cl)cc1`
2.84

Return reported log10 BCF. Input molecule: `NC(N)=S`
0.3

Return reported log10 BCF. Input molecule: `CC(Cl)(Cl)C(=O)[O][Na]`
0.86

----------
Please go through the items and note down their melting point.
Hi, when you answer, please include the unit after the number. Thanks!

Return reported melting point. Input molecule: `COC(=O)CCl`
-32.1 °C

Return reported melting point. Input molecule: `CC(=O)CC(C)C`
-84 °C

Return reported melting point. Input molecule: `Clc1ccc(Cl)c(-c2cc(Cl)c(Cl)c(Cl)c2)c1`
105 °C

Return reported melting point. Input molecule: `FCC(F)(F)F`
-101 °C

Return reported melting point. Input molecule: `CC(C)(C)c1cc(O)ccc1O`
128 °C

Return reported melting point. Input molecule: `c1ccc(OP(Oc2ccccc2)Oc2ccccc2)cc1`
25 °C

Return reported melting point. Input molecule: `COc1ccc(C[C@H]2NC[C@H](O)[C@H]2OC(C)=O)cc1`
140 °C

Return reported melting point. Input molecule: OCC(O)COc1ccccc1Cl (centres undefined)
71.5 °C

Return reported melting point. Input molecule: `COP(=S)(OC)SCC(=O)N(c1ccc(Cl)cc1)C(C)C`
51 °C

Return reported melting point. Input molecule: `CON(C)C(=O)Nc1ccc(Br)c(Cl)c1`
96 °C

Return reported melting point. Input molecule: `COc1cc2c(cc1O)CCN[C@@H]2C`
222 °C

Return reported melting point. Input molecule: `CC(C)(C)c1ccc2c(c1)C(=O)c1ccccc1C2=O`
99 °C

Return reported melting point. Input molecule: `C1=CCCCCC1`
-56 °C

Return reported melting point. Input molecule: O=C1CC(C(=O)O)CC(=O)C1=C(O)C1CC1 (centres undefined)
144 °C

Return reported melting point. Input molecule: `FC(F)(F)C(F)(F)C(F)(F)C(F)(F)C(F)(F)C(F)(F)C(F)(F)C(F)(F)C(F)(F)F`
-16 °C

Return reported melting point. Input molecule: `COc1ccc([C@@H]2CC(=O)c3c(O)cc(O[C@@H]4O[C@H](CO[C@@H]5O[C@@H](C)[C@H](O)[C@@H](O)[C@H]5O)[C@@H](O)[C@H](O)[C@H]4O)cc3O2)cc1O`
262 °C

Return reported melting point. Input molecule: `Nc1ccc2ccccc2c1N=Nc1ccccc1`
103 °C

Return reported melting point. Input molecule: `FC(F)(Cl)Cl`
-158 °C

Return reported melting point. Input molecule: `OC(c1ccccc1)(c1ccccc1)c1ccccc1`
164 °C

Return reported melting point. Input molecule: `Sc1ccc2ccccc2c1`
81 °C

Return reported melting point. Input molecule: Cc1cc(O)c(C(C)(C)C)cc1C(C)CC(c1cc(C(C)(C)C)c(O)cc1C)c1cc(C(C)(C)C)c(O)cc1C (centres undefined)
186 °C

Return reported melting point. Input molecule: `CCC(Br)(CC)C(N)=O`
67 °C

Return reported melting point. Input molecule: ClC=CCCl (mixture of isomers)
-50 °C

Return reported melting point. Input molecule: `CC(C)(C)CCO`
-60 °C

----------
Please mark Met if the recorded melting point is equal to or greater than 70 °C, and Not met if it falls below.

# check: melting point of `O=C1c2ccccc2-c2ccc(O)cc21` is greater than or equal to 70 °C
Met

# check: melting point of `C#CC` is greater than or equal to 70 °C
Not met

# check: melting point of `CCCCCC(=O)c1ccccc1` is greater than or equal to 70 °C
Not met

# check: melting point of `Clc1ccc2c(c1)Oc1cc(Cl)c(Cl)c(Cl)c1O2` is greater than or equal to 70 °C
Met

# check: melting point of `Nc1ccc(Cl)c(C(=O)O)c1` is greater than or equal to 70 °C
Met

# check: melting point of `C[C@H](CCC(=O)O)[C@H]1CC[C@H]2[C@@H]3CC[C@@H]4C[C@H](O)CC[C@]4(C)[C@H]3CC[C@]12C` is greater than or equal to 70 °C
Met

# check: melting point of `Clc1nc(Cl)nc(Nc2ccccc2Cl)n1` is greater than or equal to 70 °C
Met

# check: melting point of `CN(CCO)CCO` is greater than or equal to 70 °C
Not met

# check: melting point of CC(N)Cc1ccc(O)cc1 (stereo not drawn) is greater than or equal to 70 °C
Met

# check: melting point of `Cn1c(=O)ccc2ccccc21` is greater than or equal to 70 °C
Met

# check: melting point of `Cc1ccccc1-c1ccccc1` is greater than or equal to 70 °C
Not met

# check: melting point of `ClC(Cl)(Cl)c1ccccc1` is greater than or equal to 70 °C
Not met

# check: melting point of `O=C(O)c1cc(=O)cc(C(=O)O)o1` is greater than or equal to 70 °C
Met

# check: melting point of `Cc1ccc(C)s1` is greater than or equal to 70 °C
Not met

# check: melting point of `O=C(O)c1ccc(O)c([N+](=O)[O-])c1` is greater than or equal to 70 °C
Met

# check: melting point of `CCOO` is greater than or equal to 70 °C
Not met

# check: melting point of `O=S1(=O)CCCC1` is greater than or equal to 70 °C
Not met

# check: melting point of `CCS(=O)(=O)CC` is greater than or equal to 70 °C
Met

# check: melting point of `O=C1NC(=O)c2ccccc21` is greater than or equal to 70 °C
Met

# check: melting point of `CCCCCCCCCCCCCCCCC=O` is greater than or equal to 70 °C
Not met

# check: melting point of `Clc1ccc(-c2nc3c4ccccc4ccn3n2)cc1` is greater than or equal to 70 °C
Met

# check: melting point of `COc1cc(C(=O)O)cc(OC)c1O` is greater than or equal to 70 °C
Met

----------
Reported Property: melting point (°C)
# value in °C; strip the unit string

Return reported melting point. Input compound: `NCc1ccccc1Sc1ccccc1CO`
97

Return reported melting point. Input compound: `CC1(C)[C@@H]2CC[C@@]1(C)[C@H](O)C2`
209

Return reported melting point. Input compound: `CCN(C#N)CC`
-80.6

Return reported melting point. Input compound: `CCCCCCCCCS`
-20.1

Return reported melting point. Input compound: `COC(=O)c1ccccc1OC(C)=O`
51.5

Return reported melting point. Input compound: `O=C(c1ccccc1O)c1ccccc1O`
59.5

Return reported melting point. Input compound: `CC(C)(C#N)C(C)(C)C#N`
170

Return reported melting point. Input compound: `COc1cc(C=CC=O)ccc1O`
84

Return reported melting point. Input compound: `O=[N+]([O-])c1ccc2c(c1)CCN2`
93

Return reported melting point. Input compound: `CCCCCCCCCCCCCCCC`
18.1

Return reported melting point. Input compound: `CCCCCCCCCCC1CCCC1`
-22

Return reported melting point. Input compound: `CN(C)CCc1c[nH]c2ccc(O)cc12`
146

Return reported melting point. Input compound: `CC1=C[C@H]2O[C@@H]3[C@H](O)C[C@](C)([C@@]2(CO)[C@H](O)C1=O)[C@]31CO1`
152

Return reported melting point. Input compound: `CC=CC=CC=CC=O`
56.8

Return reported melting point. Input compound: `Nc1ccc(Cl)nc1Cl`
119

Return reported melting point. Input compound: CCCCCCCCCCCCCCCCCC(CC)c1ccccc1 (stereo not drawn)
29.3

Return reported melting point. Input compound: CC[N+](C)(CC)CCOC(=O)C(O)(c1cccs1)C1CCCC1.[Br-] (stereo not drawn)
125

Return reported melting point. Input compound: `CC(=O)C=C(C)C`
-59

Return reported melting point. Input compound: `CCN(CC)CC(=O)OCC(=O)[C@@]1(O)CC[C@H]2[C@@H]3CCC4=CC(=O)C=C[C@]4(C)[C@H]3[C@@H](O)C[C@@]21C`
176

Return reported melting point. Input compound: `c1ccc2c(c1)CCCC2`
-35.7

Return reported melting point. Input compound: CCCCC1CO1 (stereo not drawn)
94

Return reported melting point. Input compound: `CCN(CC)C(=O)SCc1ccc(Cl)cc1`
3.3

Return reported melting point. Input compound: CCCC(C)Cl (stereo not drawn)
-80

Return reported melting point. Input compound: `CCCCCCc1ccc(O)cc1O`
68

Return reported melting point. Input compound: CCC(C)C(=O)NC1CCC(=O)N(CCc2ccccc2)C1=O (stereo not drawn)
108

Return reported melting point. Input compound: `O=[N+]([O-])c1c(O)c(Cl)cc(Cl)c1Cl`
92.5

Return reported melting point. Input compound: `O=C1OCCN1/N=C/c1ccc([N+](=O)[O-])o1`
255

Return reported melting point. Input compound: `Cc1cc(=O)[nH]o1`
86.5
